All figures here come from ChEMBL document CHEMBL1143667.

Hi there, I'd appreciate the recorded Imax for every entry that follows.
# study-system: Mu-type opioid receptor (Homo sapiens)
# method-notes: Antagonist activity at human mu opioid receptor expressed in CHO membrane assessed as inhibition of DAMGO-induced [35S]GTP-gamma-S binding
# Format: functional, cell membranes
Answer with a number only, understood to be in %.

What does the record list as Imax for COc1ccc2c(c1)[C@]13CCN(CC4CC4)[C@H](C2)[C@@H]1Cc1c([nH]c2ccccc12)C3 ?
43

What does the record list as Imax for CN1CC[C@]23Cc4nc(N)sc4C[C@H]2[C@H]1Cc1ccc(O)cc13 ?
45

What does the record list as Imax for Oc1ccc2c(c1)[C@]13CCN(CC4CC4)[C@H](C2)[C@@H]1Cc1c([nH]c2ccccc12)C3 ?
84

What does the record list as Imax for Oc1ccc2c(c1)[C@]13CCN(CC4CCC4)[C@H](C2)[C@@H]1Cc1c([nH]c2ccccc12)C3 ?
23

What does the record list as Imax for Nc1nc2c(s1)C[C@H]1[C@H]3Cc4ccc(O)cc4[C@@]1(CCN3CC1CCC1)C2 ?
68

###

# study-system: Kappa-type opioid receptor (Homo sapiens, UniProt P41145)
# Sequence (P41145 whole entry): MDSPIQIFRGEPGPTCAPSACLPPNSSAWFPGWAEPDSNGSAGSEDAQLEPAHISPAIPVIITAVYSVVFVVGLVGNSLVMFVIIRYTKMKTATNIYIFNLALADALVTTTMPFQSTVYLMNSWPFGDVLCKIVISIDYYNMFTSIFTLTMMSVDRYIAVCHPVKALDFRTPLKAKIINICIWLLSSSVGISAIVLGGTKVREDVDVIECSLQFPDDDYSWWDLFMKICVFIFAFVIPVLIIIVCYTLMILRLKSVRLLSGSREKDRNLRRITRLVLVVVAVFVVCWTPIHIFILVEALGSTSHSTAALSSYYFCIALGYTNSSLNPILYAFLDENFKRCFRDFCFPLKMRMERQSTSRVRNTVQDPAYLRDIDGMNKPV
# method-notes: Agonist activity at human kappa opioid receptor expressed in CHO membrane assessed as stimulation of [35S]GTP-gamma-S binding
# Format: functional, cell membranes
# label = T if Emax >= 40% else F

Emax >= 40% for Nc1nc2c(s1)C[C@H]1[C@H]3Cc4ccc(O)cc4[C@@]1(CCN3CC1CC1)C2 ?
F

Emax >= 40% for COc1ccc2c(c1)[C@]13CCN(CC4CC4)[C@H](C2)[C@@H]1Cc1c([nH]c2ccccc12)C3 ?
T

Emax >= 40% for CN1CC[C@]23Cc4nc(N)sc4C[C@H]2[C@H]1Cc1ccc(O)cc13 ?
T

Emax >= 40% for Oc1ccc2c(c1)[C@]13CCN(CC4CC4)[C@H](C2)[C@@H]1Cc1c([nH]c2ccccc12)C3 ?
T

Emax >= 40% for Oc1ccc2c(c1)[C@]13CCN(CC4CCC4)[C@H](C2)[C@@H]1Cc1c([nH]c2ccccc12)C3 ?
T

###

# study-system: Mu-type opioid receptor (Homo sapiens, UniProt P35372)
# Sequence (P35372 whole entry): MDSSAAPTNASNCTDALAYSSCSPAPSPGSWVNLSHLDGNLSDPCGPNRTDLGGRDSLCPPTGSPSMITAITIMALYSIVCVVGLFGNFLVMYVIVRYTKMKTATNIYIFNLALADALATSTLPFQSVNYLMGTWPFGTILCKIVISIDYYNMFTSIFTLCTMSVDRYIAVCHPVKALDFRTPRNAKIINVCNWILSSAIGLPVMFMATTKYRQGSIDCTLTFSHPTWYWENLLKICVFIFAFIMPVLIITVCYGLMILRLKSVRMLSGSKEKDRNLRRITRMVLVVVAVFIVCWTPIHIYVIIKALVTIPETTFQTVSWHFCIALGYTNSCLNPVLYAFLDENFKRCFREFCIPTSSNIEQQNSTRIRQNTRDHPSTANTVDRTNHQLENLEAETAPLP
# method-notes: Antagonist activity at human mu opioid receptor expressed in CHO membrane assessed as inhibition of DAMGO-induced [35S]GTP-gamma-S binding
# Type: functional, cell membranes
measured-quantity: pIC50
Would you please state pIC50, meaning minus log10 of the concentration in mol/L, as a bare number?

Hello, I am looking for reported pIC50 with Mu-type opioid receptor (Homo sapiens, UniProt P35372) for Oc1ccc2c(c1)[C@]13CCN(CC4CC4)[C@H](C2)[C@@H]1Cc1c([nH]c2ccccc12)C3 . Could you help?
7.92

Hello, I am looking for reported pIC50 with Mu-type opioid receptor (Homo sapiens, UniProt P35372) for Nc1nc2c(s1)C[C@H]1[C@H]3Cc4ccc(O)cc4[C@@]1(CCN3CC1CCC1)C2 . Could you help?
7.59

Hello, I am looking for reported pIC50 with Mu-type opioid receptor (Homo sapiens, UniProt P35372) for COc1ccc2c(c1)[C@]13CCN(CC4CC4)[C@H](C2)[C@@H]1Cc1c([nH]c2ccccc12)C3 . Could you help?
6.36

###

# study-system: Mu-type opioid receptor (Homo sapiens, UniProt P35372)
pKi: −log10 of the molar value.
# label = Yes if pKi >= 8 else No

pKi >= 8 for CN1CC[C@]23Cc4[nH]c5ccccc5c4C[C@H]2[C@H]1Cc1ccc(O)cc13 ?
No

pKi >= 8 for Nc1nc2c(s1)C[C@H]1[C@H]3Cc4ccc(O)cc4[C@@]1(CCN3CC1CCC1)C2 ?
Yes

pKi >= 8 for Oc1ccc2c(c1)[C@]13CCN(CC4CCC4)[C@H](C2)[C@@H]1Cc1c([nH]c2ccccc12)C3 ?
Yes

pKi >= 8 for CN1CC[C@]23Cc4nc(N)sc4C[C@H]2[C@H]1Cc1ccc(O)cc13 ?
Yes

pKi >= 8 for COc1ccc2c(c1)[C@]13CCN(CC4CCC4)[C@H](C2)[C@@H]1Cc1c([nH]c2ccccc12)C3 ?
No

pKi >= 8 for Oc1ccc2c(c1)[C@]13CCN(CC4CC4)[C@H](C2)[C@@H]1Cc1c([nH]c2ccccc12)C3 ?
Yes

pKi >= 8 for COc1ccc2c(c1)[C@]13CCN(C)[C@H](C2)[C@@H]1Cc1c([nH]c2ccccc12)C3 ?
No
